- condition_info: in chlorobenzene, 296.55 K
observed_property: solubility (mole fraction)

`Nc1ccc(Sc2ccc([N+](=O)[O-])cc2)cc1` has a reported solubility (mole fraction) of 0.0133

====

- condition_info: in ethyl acetate, 313.65 K
observed_property: solubility (mole fraction)
Please state the value as a number alone, without comment.

`Nc1ccc(Sc2ccc([N+](=O)[O-])cc2)cc1` has a reported solubility (mole fraction) of 0.0836

====

- condition_info: in chloroform, 303.65 K
observed_property: solubility (mole fraction)

`Nc1ccc(Sc2ccc([N+](=O)[O-])cc2)cc1` has a reported solubility (mole fraction) of 0.0361

====

- condition_info: in toluene, 309.35 K
observed_property: solubility (mole fraction)

`Nc1ccc(Sc2ccc([N+](=O)[O-])cc2)cc1` has a reported solubility (mole fraction) of 0.0337
